src = patent US10654834B2

Target: mouse TGR5 receptor (Mus musculus, UniProt Q80SS6)
Construct: host or cells: HEK293-EBNA (293 c18, ATCC CRL10852)
Sequence (Q80SS6 whole entry): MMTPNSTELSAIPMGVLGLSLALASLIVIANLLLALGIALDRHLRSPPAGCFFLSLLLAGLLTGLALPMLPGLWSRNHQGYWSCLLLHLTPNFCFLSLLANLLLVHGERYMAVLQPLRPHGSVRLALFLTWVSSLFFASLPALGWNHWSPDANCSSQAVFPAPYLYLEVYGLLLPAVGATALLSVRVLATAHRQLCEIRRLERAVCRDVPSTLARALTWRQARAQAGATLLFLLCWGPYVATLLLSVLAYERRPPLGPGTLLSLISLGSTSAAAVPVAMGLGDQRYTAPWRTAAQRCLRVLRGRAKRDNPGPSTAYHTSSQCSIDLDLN
Assay: Mouse TGR5 HTRF cAMP production assay (HEK293-EBNA cells, Cisbio cAMP HiRange kit)
Assay type: cell-based
Details: HEK293-EBNA cells overexpressing mouse TGR5, HTRF cAMP assay
pEC50: −log10 of the molar value.
Property: pEC50

INSERT INTO assay_data (test_smiles, target, data_value) VALUES
  ('CN(C(=O)NCCC(=O)O)c1ccc(-c2cc(N3CCC[C@H]3C(=O)NCCc3ccc(C#N)cc3)nc(C(F)(F)F)n2)cc1', 'mouse TGR5 receptor (Mus musculus, UniProt Q80SS6)', '6.00 to 7.00'),
  ('N#Cc1ccc(CCNC(=O)[C@@H]2CCN2c2cc(N3CCC(CCCC(=O)O)CC3)nc(C(F)(F)F)n2)cc1', 'mouse TGR5 receptor (Mus musculus, UniProt Q80SS6)', '> 7.00'),
  ('CCOC(=O)CCNC(=O)NCCC1CCN(c2cc(N3CCC[C@H]3C(=O)NCCc3ccc(C#N)cc3)nc(C(F)(F)F)n2)CC1', 'mouse TGR5 receptor (Mus musculus, UniProt Q80SS6)', '> 7.00'),
  ('O=C(O)CCNC(=O)N1CCN(c2cc(N3CCC[C@@H](C(=O)NCCc4ccc(C(F)(F)F)cc4)C3)nc(C(F)(F)F)n2)CC1', 'mouse TGR5 receptor (Mus musculus, UniProt Q80SS6)', '> 7.00'),
  ('N#Cc1ccc(CCNC(=O)[C@@H]2CCCN2c2cc(-c3ccc(CCC(=O)NCS(=O)(=O)O)cc3)cc(C(F)(F)F)n2)cc1', 'mouse TGR5 receptor (Mus musculus, UniProt Q80SS6)', '> 7.00'),
  ('N#Cc1ccc(CCNC(=O)[C@@H]2CCCN2c2cc(-c3ccc(COCC(=O)NCS(=O)(=O)O)cc3)cc(C(F)(F)F)n2)cc1', 'mouse TGR5 receptor (Mus musculus, UniProt Q80SS6)', '> 7.00'),
  ('N#Cc1ccc(CCNC(=O)[C@@H]2CCCN2c2cc(N3CCC(CCCC(=O)NCCS(=O)(=O)NCC(=O)O)CC3)nc(C(F)(F)F)n2)cc1', 'mouse TGR5 receptor (Mus musculus, UniProt Q80SS6)', '> 7.00'),
  ('N#Cc1ccc(CCNC(=O)[C@@H]2CCCN(c3cc(N4CCN(CC(=O)O)CC4)nc(C(F)(F)F)n3)C2)cc1', 'mouse TGR5 receptor (Mus musculus, UniProt Q80SS6)', '> 7.00'),
  ('N#CCCC1CCN(c2cc(N3CCC[C@@H](C(=O)NCCc4ccc(C#N)cc4)C3)nc(C(F)(F)F)n2)CC1', 'mouse TGR5 receptor (Mus musculus, UniProt Q80SS6)', '> 7.00'),
  ('COCCC1CCN(c2cc(N3CC[C@H]3C(=O)NCCc3ccc(C#N)cc3)nc(C(F)(F)F)n2)CC1', 'mouse TGR5 receptor (Mus musculus, UniProt Q80SS6)', '> 7.00'),
  ('N#Cc1ccc(CCNC(=O)[C@@H]2CCCN2c2cc(N3CCC(CCNc4c(NCCS(=O)(=O)O)c(=O)c4=O)CC3)nc(C(F)(F)F)n2)cc1', 'mouse TGR5 receptor (Mus musculus, UniProt Q80SS6)', '> 7.00'),
  ('N#Cc1ccc(CCNC(=O)[C@@H]2CCCN2c2cc(NCCS(=O)(=O)O)nc(C(F)(F)F)n2)cc1', 'mouse TGR5 receptor (Mus musculus, UniProt Q80SS6)', '4.52 to 6.00'),
  ('N#Cc1ccc(CCNC(=O)[C@@H]2CCCN2c2cc(N3CCC(CCCC(=O)N4CCN(CC(=O)O)CC4)CC3)nc(C(F)(F)F)n2)cc1', 'mouse TGR5 receptor (Mus musculus, UniProt Q80SS6)', '> 7.00');
